Exercise: state measured IC50 for each of the compounds provided.
Target: human liver FBPase (Homo sapiens, UniProt P09467)
Sequence (P09467 2-338 limits assumed): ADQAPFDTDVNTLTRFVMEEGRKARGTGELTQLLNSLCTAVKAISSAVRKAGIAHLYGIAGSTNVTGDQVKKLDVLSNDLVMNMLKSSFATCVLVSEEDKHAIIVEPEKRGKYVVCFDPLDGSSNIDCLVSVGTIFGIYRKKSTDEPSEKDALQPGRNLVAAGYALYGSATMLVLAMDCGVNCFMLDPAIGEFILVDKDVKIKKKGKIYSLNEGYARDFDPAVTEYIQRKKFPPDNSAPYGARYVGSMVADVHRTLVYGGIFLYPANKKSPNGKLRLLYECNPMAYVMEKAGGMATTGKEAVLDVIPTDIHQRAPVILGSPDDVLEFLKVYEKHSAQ
Experiment: FBPase assay (malachite green phosphate release)
Details: recombinant human liver FBPase, 50 μM fructose-1,6-bisphosphate

Enquiry: Lookup: IC50 / human liver FBPase (Homo sapiens, UniProt P09467) / CNC(=O)c1cc(N)nc(NC(=O)NS(=O)(=O)c2cc(C)c(CCOC)s2)c1
Return: > 100 µM

Enquiry: Lookup: IC50 / human liver FBPase (Homo sapiens, UniProt P09467) / Cc1cc(S(=O)(=O)NC(=O)Nc2cc(Br)cc(NC(N)=O)n2)cs1
Return: 0.072 µM

Enquiry: Lookup: IC50 / human liver FBPase (Homo sapiens, UniProt P09467) / CNC(=O)Nc1cc(Br)cc(NC(=O)NS(=O)(=O)c2csc(C)c2)n1
Return: 0.059 µM

###

Target: human liver FBPase (Homo sapiens)
Assay: FBPase assay (malachite green phosphate release)
Details: recombinant human liver FBPase, 50 μM fructose-1,6-bisphosphate
valueType: IC50 (nM)
Please reply with the bare figure in nM and do not write the unit itself.

Enquiry: Reported IC50 for COCCc1sc(S(=O)(=O)NC(=O)Nc2cc(SC)cc(NCCF)n2)cc1C : what is it?
Return: 866

Enquiry: Reported IC50 for COCCc1sc(S(=O)(=O)NC(=O)Nc2cc(C(F)(F)F)cc(Cl)n2)cc1C : what is it?
Return: 1060

Enquiry: Reported IC50 for COCCOc1ccc(S(=O)(=O)NC(=O)Nc2cc(Br)cc(NCC(F)F)n2)cc1C : what is it?
Return: 1110

Enquiry: Reported IC50 for COCCc1sc(S(=O)(=O)NC(=O)Nc2cc(Br)cc(NC(=O)N(C)C)n2)cc1C : what is it?
Return: 1520

Enquiry: Reported IC50 for CNC(=O)Nc1cc(OC)cc(NC(=O)NS(=O)(=O)c2cn(C)c3c(OCCOC)cccc23)n1 : what is it?
Return: 1060

Enquiry: Reported IC50 for Cc1cc(C(F)(F)F)cc(NC(=O)NS(=O)(=O)c2ccc(C)s2)n1 : what is it?
Return: 1170

Enquiry: Reported IC50 for O=C(Nc1cc(Br)cc(NCC(F)F)n1)NS(=O)(=O)c1ccc2c(c1)CCO2 : what is it?
Return: 1020

Where do the numbers come from? From patent US8163778B2.
